# assayed.target: SMARCA2 (Homo sapiens, UniProt P51531)
# Sequence (P51531 whole entry): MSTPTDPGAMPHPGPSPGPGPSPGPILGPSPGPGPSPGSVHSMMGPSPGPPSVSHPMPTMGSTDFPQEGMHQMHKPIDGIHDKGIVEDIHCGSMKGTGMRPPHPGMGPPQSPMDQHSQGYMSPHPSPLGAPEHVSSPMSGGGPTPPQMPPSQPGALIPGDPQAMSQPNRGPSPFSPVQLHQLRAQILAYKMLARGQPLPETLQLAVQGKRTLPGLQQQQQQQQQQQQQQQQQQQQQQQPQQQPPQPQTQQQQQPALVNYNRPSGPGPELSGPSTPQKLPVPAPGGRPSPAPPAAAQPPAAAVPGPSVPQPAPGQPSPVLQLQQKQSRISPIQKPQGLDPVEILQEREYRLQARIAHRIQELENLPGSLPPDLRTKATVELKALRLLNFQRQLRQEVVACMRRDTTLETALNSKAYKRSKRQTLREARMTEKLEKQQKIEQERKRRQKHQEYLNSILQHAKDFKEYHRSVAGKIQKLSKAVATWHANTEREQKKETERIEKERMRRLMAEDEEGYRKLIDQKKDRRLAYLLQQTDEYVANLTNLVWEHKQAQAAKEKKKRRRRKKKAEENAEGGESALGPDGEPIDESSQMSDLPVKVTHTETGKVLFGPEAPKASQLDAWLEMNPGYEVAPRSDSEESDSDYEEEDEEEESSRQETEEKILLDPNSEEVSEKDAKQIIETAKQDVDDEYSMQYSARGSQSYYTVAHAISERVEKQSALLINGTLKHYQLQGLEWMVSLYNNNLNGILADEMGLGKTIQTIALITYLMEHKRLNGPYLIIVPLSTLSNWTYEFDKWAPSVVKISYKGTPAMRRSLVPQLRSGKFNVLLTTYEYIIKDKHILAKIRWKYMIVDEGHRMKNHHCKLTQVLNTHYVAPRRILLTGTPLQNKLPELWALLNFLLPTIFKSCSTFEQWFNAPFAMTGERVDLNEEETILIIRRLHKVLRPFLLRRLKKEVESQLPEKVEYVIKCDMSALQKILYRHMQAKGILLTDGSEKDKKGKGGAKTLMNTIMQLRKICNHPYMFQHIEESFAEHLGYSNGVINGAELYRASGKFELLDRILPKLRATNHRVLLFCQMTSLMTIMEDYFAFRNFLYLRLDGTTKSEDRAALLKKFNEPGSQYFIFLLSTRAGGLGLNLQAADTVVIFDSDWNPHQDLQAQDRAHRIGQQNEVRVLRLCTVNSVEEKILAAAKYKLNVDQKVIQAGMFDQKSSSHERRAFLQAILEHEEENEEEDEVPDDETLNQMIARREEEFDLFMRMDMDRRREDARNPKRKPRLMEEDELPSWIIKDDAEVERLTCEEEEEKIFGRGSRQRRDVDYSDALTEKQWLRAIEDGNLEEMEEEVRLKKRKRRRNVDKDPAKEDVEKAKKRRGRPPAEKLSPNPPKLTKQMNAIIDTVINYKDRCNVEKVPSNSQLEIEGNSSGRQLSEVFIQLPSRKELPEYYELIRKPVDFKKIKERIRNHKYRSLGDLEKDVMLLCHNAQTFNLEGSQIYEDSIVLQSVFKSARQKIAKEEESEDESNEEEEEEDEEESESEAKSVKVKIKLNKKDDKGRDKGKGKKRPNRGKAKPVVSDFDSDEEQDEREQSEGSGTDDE
# test.details: HiBit assay in engineered HT1080 CRISPR knock-in cell, 6 hrs (B series), SMARCA2
# Assay type: cell-based
# test.settings: HT-1080, HT1080 CRISPR knock-in cells, 6 hrs incubation; read-out: SMARC A2 HT1080 HiBit Dmax (%)
Would you kindly list Dmax for each of these compounds?

Please look up its Dmax: Cc1ncsc1-c1ccc2c(NC(=O)[C@@H]3C[C@@H](O)CN3C(=O)[C@@H](n3cc([C@H]4CC[C@H](CN5CCC(c6ccc7c(c6)-n6c(nc(=O)c8c(Cl)cccc86)C7(C)C)CC5)CC4)nn3)C(C)(C)C)n[nH]c2c1
< 50%

Continue with Cc1ncsc1-c1ccc([C@H](C)NC(=O)[C@@H]2C[C@@H](O)CN2C(=O)[C@@H](n2cc(CN3CCC(c4ccc5c(c4)-n4c(nc(=O)c6c(Cl)cccc64)C5(C)C)CC3)nn2)C(C)(C)C)cc1
> 90%

Continue with Cc1ncsc1-c1ccc([C@H](CC(=O)NCC2CCC(N3CCC(c4ccc5c(c4)-n4c(nc(=O)c6c(Cl)cccc64)C5(C)C)CC3)CC2)NC(=O)[C@@H]2C[C@@H](O)CN2C(=O)[C@@H](NC(=O)C2(F)CC2)C(C)(C)C)cc1 (stereo partly shown)
70 to 90%

Continue with Cc1ncsc1-c1ccc([C@H](C)NC(=O)[C@@H]2C[C@@H](O)CN2C(=O)[C@@H](NC(=O)c2cccc(CN3CCC(c4ccc5c(c4)C(C)(C)c4nc(=O)c6c(Cl)cccc6n4-5)CC3)c2)C(C)(C)C)cc1
> 90%

---

# assayed.target: SMARCA4 (Homo sapiens)
# Sequence (P51532 whole entry): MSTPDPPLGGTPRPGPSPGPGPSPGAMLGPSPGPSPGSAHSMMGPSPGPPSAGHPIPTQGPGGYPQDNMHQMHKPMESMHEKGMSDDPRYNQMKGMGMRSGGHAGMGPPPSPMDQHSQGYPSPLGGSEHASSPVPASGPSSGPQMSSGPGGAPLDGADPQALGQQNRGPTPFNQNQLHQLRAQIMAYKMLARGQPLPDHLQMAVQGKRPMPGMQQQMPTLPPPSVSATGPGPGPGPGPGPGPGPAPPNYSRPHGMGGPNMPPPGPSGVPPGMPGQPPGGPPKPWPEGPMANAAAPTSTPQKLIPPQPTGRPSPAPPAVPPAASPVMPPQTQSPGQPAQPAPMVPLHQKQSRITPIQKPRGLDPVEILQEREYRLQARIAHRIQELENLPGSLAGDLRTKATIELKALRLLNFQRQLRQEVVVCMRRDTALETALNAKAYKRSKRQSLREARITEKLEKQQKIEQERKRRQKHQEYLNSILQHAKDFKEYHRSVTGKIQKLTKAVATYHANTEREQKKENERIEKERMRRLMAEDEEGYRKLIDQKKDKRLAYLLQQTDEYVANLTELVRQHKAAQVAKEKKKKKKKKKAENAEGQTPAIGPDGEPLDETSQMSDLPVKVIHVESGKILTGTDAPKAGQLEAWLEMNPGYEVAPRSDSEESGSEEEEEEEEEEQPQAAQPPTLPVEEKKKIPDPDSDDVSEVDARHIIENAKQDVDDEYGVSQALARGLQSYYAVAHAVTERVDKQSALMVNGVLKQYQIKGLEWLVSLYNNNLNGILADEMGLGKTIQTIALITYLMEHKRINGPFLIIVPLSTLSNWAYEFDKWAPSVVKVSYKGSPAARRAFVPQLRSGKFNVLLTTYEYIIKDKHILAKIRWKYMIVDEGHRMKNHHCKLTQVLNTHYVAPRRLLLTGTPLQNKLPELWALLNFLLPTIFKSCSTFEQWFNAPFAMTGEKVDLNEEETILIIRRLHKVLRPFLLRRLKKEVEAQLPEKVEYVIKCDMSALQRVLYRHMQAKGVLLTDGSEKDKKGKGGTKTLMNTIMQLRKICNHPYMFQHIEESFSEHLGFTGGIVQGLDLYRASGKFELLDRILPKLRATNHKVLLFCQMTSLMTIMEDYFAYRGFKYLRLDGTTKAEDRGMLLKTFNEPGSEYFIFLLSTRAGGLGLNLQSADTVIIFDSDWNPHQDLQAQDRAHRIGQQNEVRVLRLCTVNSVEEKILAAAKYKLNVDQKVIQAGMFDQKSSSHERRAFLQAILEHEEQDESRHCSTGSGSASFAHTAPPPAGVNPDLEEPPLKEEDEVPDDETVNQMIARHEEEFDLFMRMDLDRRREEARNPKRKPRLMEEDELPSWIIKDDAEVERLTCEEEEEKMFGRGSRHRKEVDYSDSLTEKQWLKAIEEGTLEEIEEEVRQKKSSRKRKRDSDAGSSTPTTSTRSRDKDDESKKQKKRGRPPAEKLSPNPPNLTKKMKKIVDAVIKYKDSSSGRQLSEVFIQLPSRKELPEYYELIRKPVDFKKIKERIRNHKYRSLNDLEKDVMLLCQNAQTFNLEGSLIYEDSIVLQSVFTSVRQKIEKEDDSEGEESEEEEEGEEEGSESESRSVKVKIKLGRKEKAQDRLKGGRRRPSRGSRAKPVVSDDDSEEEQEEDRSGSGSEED
# test.details: HiBit assay in engineered HT1080 CRISPR knock-in cell, 6 hrs (B series), SMARCA4
# Format: cell-based
# test.settings: HT-1080, HT1080 CRISPR knock-in cells, 6 hrs incubation; read-out: SMARC A4 HT1080 HiBit Dmax(%)
# Experimental: The HiBit assay was performed using engineered HT1080 CRISPR knock-in cell utilizing the Nano-Glo HiBiT Lytic Detection System from Promega, Cat #N3040. Compounds were transferred, 25 nL DMSO or test compounds (final DMSO @ 0.1%) to intermediate plates (Corning3570) using ECHO550. […] After briefly centrifugation (2000 rpm 1 mins), plate was read on Envision (Ultrasensitive luminescence model).
metric.name: Dmax

Please look up its Dmax: Cc1ncsc1-c1ccc([C@H](C)NC(=O)[C@@H]2C[C@@H](O)CN2C(=O)[C@@H](NC(=O)CC2CCC(N3CCC(c4ccc5c(c4)-n4c(nc(=O)c6c(Cl)cccc64)C5(C)C)CC3)CC2)C(C)(C)C)cc1 (some centres unmarked)
< 50%

Continue with Cc1ncsc1-c1ccc([C@H](CC(=O)N[C@H]2CC[C@H](CN3CCC(c4ccc5c(c4)-n4c(nc(=O)c6c(Cl)cccc64)C5(C)C)CC3)CC2)NC(=O)[C@@H]2C[C@@H](O)CN2C(=O)[C@@H](NC(=O)C2(F)CC2)C(C)(C)C)cc1
50 to 69%

Continue with Cc1ncsc1-c1ccc([C@H](C)NC(=O)[C@@H]2C[C@@H](O)CN2C(=O)[C@@H](NC(=O)c2cccc(CN3CCC(c4ccc5c(c4)C(C)(C)c4nc(=O)c6c(Cl)cccc6n4-5)CC3)c2)C(C)(C)C)cc1
70 to 90%

Continue with Cc1ncsc1-c1ccc([C@H](CC(=O)NC2CCC(N3CCC(c4ccc5c(c4)-n4c(nc(=O)c6c(Cl)cccc64)C5(C)C)CC3)CC2)NC(=O)[C@@H]2C[C@@H](O)CN2C(=O)[C@@H](NC(=O)C2(F)CC2)C(C)(C)C)cc1 (some centres unmarked)
< 50%

Continue with Cc1cc(C(C(=O)N2C[C@H](O)C[C@H]2C(=O)N[C@@H](C)c2ccc(-c3scnc3C#CCN3CCC(c4ccc5c(c4)C(C)(C)c4nc(=O)c6c(Cl)cccc6n4-5)CC3)cc2)C(C)C)on1 (some centres unmarked)
50 to 69%

Continue with Cc1cc(-c2scnc2C)ccc1[C@H](C)NC(=O)[C@@H]1C[C@@H](O)CN1C(=O)[C@@H](n1cc([C@H]2CC[C@H](CN3CCC(c4ccc5c(c4)-n4c(nc(=O)c6c(Cl)cccc64)C5(C)C)CC3)CC2)nn1)C(C)(C)C
70 to 90%

Continue with C[C@H](NC(=O)[C@@H]1C[C@@H](O)CN1C(=O)[C@@H](n1cc([C@H]2CC[C@H](CN3CCC(c4ccc5c(c4)-n4c(nc(=O)c6c(Cl)cccc64)C5(C)C)CC3)CC2)nn1)C(C)(C)C)c1ccc(-c2scnc2Cl)cc1
50 to 69%

Continue with Cc1ncsc1-c1ccc(CNC(=O)[C@@H]2C[C@@H](O)CN2C(=O)[C@@H](NC(=O)C2(F)CC2)C(C)(C)C)c(OCC2CCC(N3CCC(c4ccc5c(c4)-n4c(nc(=O)c6c(Cl)cccc64)C5(C)C)CC3)CC2)c1 (some centres unmarked)
> 90%

Continue with Cc1ncsc1-c1ccc([C@H](C)NC(=O)[C@@H]2C[C@@H](O)CN2C(=O)[C@@H](n2cc(-c3cccc(CN4CCC(c5ccc6c(c5)-n5c(nc(=O)c7c(Cl)cccc75)C6(C)C)CC4)c3)nn2)C(C)(C)C)cc1
> 90%

Continue with Cc1ncsc1-c1ccc([C@H](C)NC(=O)[C@@H]2C[C@@H](O)CN2C(=O)[C@@H](c2cc(N3CCC(CN4CCC(c5ccc6c(c5)C(C)(C)c5nc(=O)c7c(Cl)cccc7n5-6)CC4)CC3)no2)C(C)C)cc1
> 90%

Continue with Cc1ncsc1-c1ccc([C@H](C)NC(=O)[C@@H]2C[C@@H](O)CN2C(=O)[C@H](C(C)C)n2cc(C3CCN(CCN4CCC(c5ccc6c(c5)-n5c(nc(=O)c7c(Cl)cccc75)C6(C)C)CC4)CC3)nn2)cc1
70 to 90%

Continue with Cc1ncsc1-c1ccc([C@H](CCCCCN2CCC(c3ccc4c(c3)C(C)(C)c3nc(=O)c5c(Cl)cccc5n3-4)CC2)NC(=O)[C@@H]2C[C@@H](O)CN2C(=O)[C@@H](NC(=O)C2(F)CC2)C(C)(C)C)cc1
> 90%

Continue with Cc1ncsc1-c1ccc([C@H](C)NC(=O)[C@@H]2C[C@@H](O)CN2C(=O)[C@H](C(C)C)n2cc(CCCCCN3CCC(c4ccc5c(c4)-n4c(nc(=O)c6c(Cl)cccc64)C5(C)C)CC3)nn2)cc1
70 to 90%

Continue with C#Cc1ccc([C@H](C)NC(=O)[C@@H]2C[C@@H](O)CN2C(=O)[C@H](C(C)C)n2cc([C@H]3CC[C@H](CN4CCC(c5ccc6c(c5)-n5c(nc(=O)c7c(Cl)cccc75)C6(C)C)CC4)CC3)nn2)cc1
70 to 90%

Continue with Cc1cc(C(C(=O)N2C[C@H](O)C[C@H]2C(=O)N[C@@H](CN2CCC(c3cccc4c3C(C)(C)c3nc(=O)c5c(Cl)cccc5n3-4)CC2)c2ccc(-c3scnc3C)cc2)C(C)C)on1 (some centres unmarked)
70 to 90%

Continue with Cc1ncsc1-c1ccc([C@H](C)NC(=O)[C@@H]2C[C@@H](O)CN2C(=O)[C@H](c2cc(N3CCC(C(=O)N4CCC(c5ccc6c(c5)C(C)(C)c5nc(=O)c7c(Cl)cccc7n5-6)CC4)CC3)no2)C(C)C)cc1
> 90%

Continue with Cc1ncsc1-c1ccc([C@H](C)NC(=O)[C@@H]2C[C@@H](O)CN2C(=O)[C@@H](n2cc([C@H]3CC[C@H](CN4CCC(c5ccc6c(c5)-n5c(nc(=O)c7c(Cl)cccc75)C6(C)C)CC4)CC3)nn2)C(C)(C)C)cc1
70 to 90%
